- Test system: human basophil histamine release
- measurement.description: Human basophil histamine release stimulated with anti-IgE
- Assay type: cell-based
- measurement.conditions: Homo sapiens; anti-IgE stimulated; absence of serum
experimental.readout: IC50 (nM)
Answers are plain numbers, in nM.

Query block: IC50 of "COc1ccc2sc(C(=O)Nc3nnn[nH]3)c(OC(C)C)c2c1" on human basophil histamine release?
Result block: 300
